read-out: DNA damage-inducible transcript 3 (DDIT3), DDIT3 (gene 1649); assay: LTEA_HepaRG_DDIT3: Life Technologies and Expression Analysis (LTEA) Assay for DNA damage-inducible transcript 3 (DDIT3) using HepaRG (AID 2283488); conditions: mRNA level, 48 h; actives raise or lower the signal
Calls of active or inactive are those of the source. Rule for the calls: active = hit-call score of the fitted dose curve at least 0.9, where 1 is the maximum; inactive = score below 0.9.
# valid calls are active, inactive; nothing else

# lookup: test call for "CC=Cc1ccc(O)c(OC)c1" inactive

Input "CC(C)(C)c1cc(O)c(C(C)(C)C)cc1O" active

// next record "O=c1c(O)c(-c2ccc(O)c(O)c2)oc2cc(O)cc(O)c12" inactive

Field entry: "CC(=O)OCCOCCOCCOC(C)=O" inactive

Now this one: "Nc1nc(N)c2nc(CNc3ccc(C(=O)N[C@@H](CCC(=O)O)C(=O)O)cc3)cnc2n1" inactive

What do we get for "COC(=O)c1ccc(O)cc1" ? inactive

Also check "CCCCCCCCCCCCCO" inactive

What do you get for "Oc1ccc2ccccc2c1N=Nc1ccccc1" ? inactive

Another: "NS(=O)(=O)c1cc2c(cc1Cl)NCNS2(=O)=O" inactive

For "O=C(OCCCCCOC(=O)c1ccccc1)c1ccccc1" then? active

How about this compound: "CCNc1cccc(C)c1" inactive

Try this compound next: "C=CCOC(=O)c1ccccc1C(=O)OCC=C" inactive

Repeat with COCCOC[C@H](CC1(C(=O)NC2CCC(C(=O)O)CC2)CCCC1)C(=O)Oc1ccc2c(c1)CCC2 (stereo partly specified) inactive

Lookup "O=C(O)Cc1ccccc1Nc1c(Cl)cccc1Cl" inactive

Similarly, "COc1cc(S(=O)(=O)O)c(C)cc1N=Nc1c(O)ccc2cc(S(=O)(=O)O)ccc12" ? inactive

Record: "Cc1ccc(Cl)cc1" inactive
